Origin of the recorded values: ChEMBL document CHEMBL1687942

assay_name: Apparent permeability of the compound by PAMPA at pH 7.4
reported_endpoint: Papp (×10⁻⁶ cm/s)
Give the quantity in ×10⁻⁶ cm/s, number only.

If you can, please state the reported Papp value of C[C@@H](Oc1cc(-n2cnc3cc(OC4CCN(C)CC4)ccc32)ccc1C(N)=O)c1ccccc1C(F)(F)F .
33.4

====

measured_on: Serine/threonine-protein kinase PLK1 (Homo sapiens)
Sequence (P53350 whole entry): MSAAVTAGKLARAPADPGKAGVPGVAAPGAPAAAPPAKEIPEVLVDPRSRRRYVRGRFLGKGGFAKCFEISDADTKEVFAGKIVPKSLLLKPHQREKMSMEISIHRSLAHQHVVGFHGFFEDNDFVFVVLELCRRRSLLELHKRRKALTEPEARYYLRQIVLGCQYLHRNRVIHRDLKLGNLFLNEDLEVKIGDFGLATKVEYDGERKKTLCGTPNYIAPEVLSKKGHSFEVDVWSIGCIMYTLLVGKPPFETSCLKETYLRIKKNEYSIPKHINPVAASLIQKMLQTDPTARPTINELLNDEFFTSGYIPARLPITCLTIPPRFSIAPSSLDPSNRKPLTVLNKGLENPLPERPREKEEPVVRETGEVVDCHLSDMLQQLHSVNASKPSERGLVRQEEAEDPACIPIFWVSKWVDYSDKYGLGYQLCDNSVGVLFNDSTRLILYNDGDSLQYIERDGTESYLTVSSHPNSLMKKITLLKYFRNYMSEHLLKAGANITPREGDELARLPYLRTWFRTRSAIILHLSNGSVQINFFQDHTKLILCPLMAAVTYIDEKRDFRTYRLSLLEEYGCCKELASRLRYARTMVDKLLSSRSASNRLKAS
Would you mind telling me the reported IC50 of each entry?
Give the quantity in nM, number only.

Item: C[C@@H](Oc1cc(-n2cnc3cc(OC4CCN(C)CC4)ccc32)ccc1C(N)=O)c1ccccc1C(F)(F)F Test system: Serine/threonine-protein kinase PLK1 (Homo sapiens) Read-out: IC50 Value: ?
51300

Item: COc1cc(-n2cnc3ccccc32)sc1C(N)=O Test system: Serine/threonine-protein kinase PLK1 (Homo sapiens) Read-out: IC50 Value: ?
5310

Item: COc1cc(-n2cnc3ccc(OC4CCN(C)CC4)cc32)sc1C(N)=O Test system: Serine/threonine-protein kinase PLK1 (Homo sapiens) Read-out: IC50 Value: ?
1330

Item: CC(Oc1cc(-n2cnc3ccc(OC4CCN(C)CC4)cc32)sc1C(N)=O)c1ccccc1 (racemic) Test system: Serine/threonine-protein kinase PLK1 (Homo sapiens) Read-out: IC50 Value: ?
66
